Target: EZH2 within the PRC2 complex (Homo sapiens)
Construct: FLAG
Sequence (Q15910 whole entry): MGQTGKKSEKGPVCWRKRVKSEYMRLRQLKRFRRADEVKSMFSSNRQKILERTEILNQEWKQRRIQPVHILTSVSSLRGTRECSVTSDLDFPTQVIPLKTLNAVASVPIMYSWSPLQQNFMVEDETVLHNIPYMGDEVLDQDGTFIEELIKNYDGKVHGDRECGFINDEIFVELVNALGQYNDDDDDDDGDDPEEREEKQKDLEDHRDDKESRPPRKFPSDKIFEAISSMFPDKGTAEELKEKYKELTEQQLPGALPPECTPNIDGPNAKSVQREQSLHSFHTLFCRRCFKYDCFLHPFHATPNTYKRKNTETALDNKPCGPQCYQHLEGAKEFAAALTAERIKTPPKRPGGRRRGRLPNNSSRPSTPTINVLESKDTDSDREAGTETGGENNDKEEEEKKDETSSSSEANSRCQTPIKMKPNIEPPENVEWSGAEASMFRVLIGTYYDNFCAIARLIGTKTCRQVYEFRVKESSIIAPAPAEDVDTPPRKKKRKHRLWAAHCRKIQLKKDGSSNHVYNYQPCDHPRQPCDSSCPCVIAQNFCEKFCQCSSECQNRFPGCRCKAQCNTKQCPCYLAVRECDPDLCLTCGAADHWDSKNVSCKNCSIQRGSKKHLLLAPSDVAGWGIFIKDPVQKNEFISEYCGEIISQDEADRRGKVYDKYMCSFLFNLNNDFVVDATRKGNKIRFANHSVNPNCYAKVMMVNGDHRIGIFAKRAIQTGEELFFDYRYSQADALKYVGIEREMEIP
Sequence (O75530 whole entry partner): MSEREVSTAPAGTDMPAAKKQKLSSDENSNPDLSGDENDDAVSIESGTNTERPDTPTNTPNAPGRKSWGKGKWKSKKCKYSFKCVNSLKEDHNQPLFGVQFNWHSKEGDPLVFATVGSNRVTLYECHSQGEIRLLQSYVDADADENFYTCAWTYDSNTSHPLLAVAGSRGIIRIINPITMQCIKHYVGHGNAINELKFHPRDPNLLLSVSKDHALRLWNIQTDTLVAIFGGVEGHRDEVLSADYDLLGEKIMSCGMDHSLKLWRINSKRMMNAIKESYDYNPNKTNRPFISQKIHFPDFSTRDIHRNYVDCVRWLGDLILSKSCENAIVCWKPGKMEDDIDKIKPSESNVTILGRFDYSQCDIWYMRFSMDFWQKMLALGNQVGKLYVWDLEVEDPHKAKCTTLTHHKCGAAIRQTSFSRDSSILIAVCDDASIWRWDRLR
Sequence (Q15022 whole entry partner): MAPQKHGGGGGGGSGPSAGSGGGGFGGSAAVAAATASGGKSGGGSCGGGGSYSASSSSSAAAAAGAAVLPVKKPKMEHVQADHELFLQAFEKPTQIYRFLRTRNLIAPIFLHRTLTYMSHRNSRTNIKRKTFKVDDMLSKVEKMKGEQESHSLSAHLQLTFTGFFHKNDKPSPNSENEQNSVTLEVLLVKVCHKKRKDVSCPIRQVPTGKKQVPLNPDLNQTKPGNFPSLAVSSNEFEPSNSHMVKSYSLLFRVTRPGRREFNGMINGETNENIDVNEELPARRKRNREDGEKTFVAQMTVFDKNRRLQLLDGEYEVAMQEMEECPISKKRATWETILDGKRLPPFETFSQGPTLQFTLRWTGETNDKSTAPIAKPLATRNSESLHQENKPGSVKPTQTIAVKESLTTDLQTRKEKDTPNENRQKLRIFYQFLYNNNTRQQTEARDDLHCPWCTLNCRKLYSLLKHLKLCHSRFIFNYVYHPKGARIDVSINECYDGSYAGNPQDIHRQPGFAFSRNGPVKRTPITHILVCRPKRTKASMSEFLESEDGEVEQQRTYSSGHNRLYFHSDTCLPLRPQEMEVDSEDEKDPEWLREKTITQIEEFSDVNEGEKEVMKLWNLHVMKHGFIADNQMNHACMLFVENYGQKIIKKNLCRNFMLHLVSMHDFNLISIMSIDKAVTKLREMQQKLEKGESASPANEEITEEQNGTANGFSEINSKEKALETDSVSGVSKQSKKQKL
Sequence (Q09028 whole entry partner): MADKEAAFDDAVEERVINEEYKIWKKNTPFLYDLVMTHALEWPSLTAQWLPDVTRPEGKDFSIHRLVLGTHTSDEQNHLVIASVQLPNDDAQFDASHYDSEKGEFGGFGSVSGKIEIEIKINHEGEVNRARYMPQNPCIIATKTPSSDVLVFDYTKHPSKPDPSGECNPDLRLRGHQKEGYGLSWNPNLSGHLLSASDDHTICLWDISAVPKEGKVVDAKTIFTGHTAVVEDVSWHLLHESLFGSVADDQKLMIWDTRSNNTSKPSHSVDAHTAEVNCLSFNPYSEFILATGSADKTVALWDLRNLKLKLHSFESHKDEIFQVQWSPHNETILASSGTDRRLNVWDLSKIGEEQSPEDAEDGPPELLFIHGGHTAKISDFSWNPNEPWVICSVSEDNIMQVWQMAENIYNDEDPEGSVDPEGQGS
Sequence (Q6ZN18 whole entry partner): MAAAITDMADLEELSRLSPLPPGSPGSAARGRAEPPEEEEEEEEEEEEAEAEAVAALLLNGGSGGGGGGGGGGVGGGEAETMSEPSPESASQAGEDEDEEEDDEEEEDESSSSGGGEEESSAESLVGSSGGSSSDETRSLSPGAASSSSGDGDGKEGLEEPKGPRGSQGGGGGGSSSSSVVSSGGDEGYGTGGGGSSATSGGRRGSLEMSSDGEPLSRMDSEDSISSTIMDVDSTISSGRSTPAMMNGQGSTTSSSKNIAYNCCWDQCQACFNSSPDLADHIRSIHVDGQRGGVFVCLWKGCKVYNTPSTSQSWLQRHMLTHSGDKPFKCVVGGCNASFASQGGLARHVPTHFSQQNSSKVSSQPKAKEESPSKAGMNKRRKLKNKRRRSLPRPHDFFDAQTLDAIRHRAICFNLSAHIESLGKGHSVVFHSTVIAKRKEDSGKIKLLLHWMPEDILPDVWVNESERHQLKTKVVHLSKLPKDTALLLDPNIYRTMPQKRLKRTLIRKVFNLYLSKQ
Assay: EZH2 methyltransferase scintillation proximity assay (SPA)
Conditions: methyltransferase activity of EZH2 in human PRC2 complex, 3H-SAM, HeLa mononucleosomes
pIC50: −log10 of the molar value.
measured.quantity: pIC50

>  <compound>
CCCc1cc(C)[nH]c(=O)c1CNC(=O)c1cc(-c2cnc(C)nc2)cc2c1cnn2C(C)C [Example 17]

>  <pIC50>
8.10

$$$$
>  <compound>
Cc1cc(Cc2ccccc2)c(CNC(=O)c2cc(Br)cc3c2cnn3C(C)C)c(=O)[nH]1 [Example 5]

>  <pIC50>
8.10

$$$$
>  <compound>
CCCc1cc(C)[nH]c(=O)c1CNC(=O)c1cc(-c2ccc(OC)nc2)cc2c1cnn2C(C)C [Example 23]

>  <pIC50>
8.10

$$$$

This collection of values is drawn from patent US8846935B2.
